Data origin: patent US12017992B2

# EXPERIMENT_NOTES: PK of C458 in mice, plasma and brain by LC-MS/MS
# Format: in vivo, mouse
# STUDY_CONDITIONS: mouse, brain, intravenous, 2 mg/kg, 0.5 hr, single mouse; read-out: Brain Concentration
OBSERVED_PROPERTY: concentration at 0.5 h (ng/g)

{"COMPOUND": "Cc1cccc(O[C@@H]2CCC[C@H](C(C)CNCc3ccncc3)C2)c1 (relative stereo) [Compound C458]", "REPORTED_MEASUREMENT": 316}

---

# EXPERIMENT_NOTES: PK of C458 in mice, plasma and brain by LC-MS/MS
# Format: in vivo, mouse
# STUDY_CONDITIONS: mouse, brain, intravenous, 2 mg/kg, 2 hr, single mouse; read-out: Brain Concentration

{"MOLECULE": "Cc1cccc(O[C@@H]2CCC[C@H](C(C)CNCc3ccncc3)C2)c1 (relative stereo)", "SCALE_UNIT": "ng/g", "concentration at 2 h": 68.2}

---

# EXPERIMENT_NOTES: PK of C458 in mice, plasma and brain by LC-MS/MS
# Format: in vivo, mouse
# STUDY_CONDITIONS: mouse, brain, intravenous, 2 mg/kg, 1 hr, single mouse; read-out: Brain Concentration

{"COMPOUND": "Cc1cccc(O[C@@H]2CCC[C@H](C(C)CNCc3ccncc3)C2)c1 (relative stereo)", "SCALE_UNIT": "ng/g", "concentration at 1 h": 118}

---

# Tested on: MC65 cells
# EXPERIMENT_NOTES: Efficacy against Aβ toxicity in MC65 Tet on/off cells (MTT assay)
# Format: cell-based
# STUDY_CONDITIONS: MTT assay, nonlinear regression
# Description: FIGS. 4A and 4B are a pair of graphs plotting survival of MC65 cells after treatment with the indicated compounds, in the presence (Tet/off) or absence (Tet/on) of Aβ expression. […] Cell viability was measured with an MTT assay 72 hours later. […] FIGS. 5A and 5B are a pair of graphs plotting survival of MC65 cells after treatment with the indicated compounds, in the presence (Tet/off) or absence (Tet/on) of Aβ expression. […] Cell viability was measured with an MTT assay 72 hours later. […]
OBSERVED_PROPERTY: EC50

{"COMPOUND": "Cc1cccc(O[C@@H]2CCC[C@H](C(C)CNCc3ccncc3)C2)c1 (relative stereo)", "TARGET_OR_SYSTEM": "MC65 cells", "REPORTED_MEASUREMENT": "3.59 nM"}
